Assay: BSK_3C_VCAM1: BioMAP Diversity Plus: 3C Assay for Vascular cell adhesion molecule 1 (VCAM1) Biomarker Activity (AID 2282999)
Settings: BioMAP 3C HUVEC, VCAM1 ELISA, cytokine-stimulated; actives raise or lower the signal
The source made the active and inactive calls. The calls were made as follows: active = hit-call score of the fitted dose curve at least 0.9, where 1 is the maximum; inactive = score below 0.9.
Classes used: 1 for active, 0 for inactive

compound | assigned-label
CC(C)CCCCCCOC(=O)C1CCCCC1C(=O)OCCCCCCC(C)C (stereo not given) | 0
COc1cc2c(c(OC)c1OC)-c1ccc(OC)c(=O)cc1[C@@H](NC(C)=O)CC2 | 1
CCCCCCCC/C=C\CCCCCCCC(=O)OC[C@@H](O)[C@H]1OC[C@H](O)[C@H]1O | 0
COCc1nnc(-c2ccc[n+]([O-])c2)n1-c1c(Cl)c(Cl)cc2[nH]c(=O)c(=O)[nH]c12 | 0
OCCOCCOCCO | 0
OC(O)(C(F)C(O)(O)C(F)(F)F)C(F)(F)F | 0
COS(C)(=O)=O | 0
O=C(NO)C1(NS(=O)(=O)c2ccc(Oc3ccc(F)cc3)cc2)CCOCC1 | 0
CCCCCCCC1CCC(=O)O1 (stereo not given) | 0
O=c1[nH]cnc2c1ncn2[C@H]1CC[C@@H](CO)O1 | 0
Cc1cccc(O)c1C | 0
CCN(CC)C(=S)SSC(=S)N(CC)CC | 1
CCOC(N)=O | 0
OC[C@H]1O[C@@](CO)(O[C@H]2O[C@H](CO)[C@@H](O)[C@H](O)[C@H]2O)[C@@H](O)[C@@H]1O | 0
NC(=O)N(O)[C@@H]1COc2cc(OCc3ccccc3)ccc21 | 0
OC(Cn1cncn1)(Cn1cncn1)c1ccc(F)cc1F | 0
COc1cc(C(C)C)c2c(c1)S(=O)(=O)N(COc1cc(=O)n3cccc(OCCN4CCCCC4)c3n1)C2=O | 1
NCC(F)(F)C(F)(F)C(F)(F)C(F)(F)F | 0
Cc1nccn1-c1ccc(Sc2cccc(C3(C(N)=O)CCOCC3)c2)cc1 | 0
FC(F)(F)COC(OCC(F)(F)F)OCC(F)(F)F | 0
CCCCCCCCCCCCCCCCOS(=O)(=O)O | 0
FC(F)(F)C(F)(F)C(F)(F)C(F)(F)C(F)(F)C(F)(F)I | 0
NC(=O)NN=Cc1ccc([N+](=O)[O-])o1 | 0
CCCCCCCCCC | 0
CCCCC(CC)C(=O)OCCOCCOCCOC(=O)C(CC)CCCC (stereo not given) | 0
